SYSTEM UNDER TEST: HPK1 (Homo sapiens)
Construct: A HiBiT tag was introduced by CRISPR on the N terminus of HPK1 in Jurkat cells; host or cells: Jurkat (ATCC TIB-152), monoclonal CRISPR HiBiT knock-in line
Sequence (Q92918 whole entry): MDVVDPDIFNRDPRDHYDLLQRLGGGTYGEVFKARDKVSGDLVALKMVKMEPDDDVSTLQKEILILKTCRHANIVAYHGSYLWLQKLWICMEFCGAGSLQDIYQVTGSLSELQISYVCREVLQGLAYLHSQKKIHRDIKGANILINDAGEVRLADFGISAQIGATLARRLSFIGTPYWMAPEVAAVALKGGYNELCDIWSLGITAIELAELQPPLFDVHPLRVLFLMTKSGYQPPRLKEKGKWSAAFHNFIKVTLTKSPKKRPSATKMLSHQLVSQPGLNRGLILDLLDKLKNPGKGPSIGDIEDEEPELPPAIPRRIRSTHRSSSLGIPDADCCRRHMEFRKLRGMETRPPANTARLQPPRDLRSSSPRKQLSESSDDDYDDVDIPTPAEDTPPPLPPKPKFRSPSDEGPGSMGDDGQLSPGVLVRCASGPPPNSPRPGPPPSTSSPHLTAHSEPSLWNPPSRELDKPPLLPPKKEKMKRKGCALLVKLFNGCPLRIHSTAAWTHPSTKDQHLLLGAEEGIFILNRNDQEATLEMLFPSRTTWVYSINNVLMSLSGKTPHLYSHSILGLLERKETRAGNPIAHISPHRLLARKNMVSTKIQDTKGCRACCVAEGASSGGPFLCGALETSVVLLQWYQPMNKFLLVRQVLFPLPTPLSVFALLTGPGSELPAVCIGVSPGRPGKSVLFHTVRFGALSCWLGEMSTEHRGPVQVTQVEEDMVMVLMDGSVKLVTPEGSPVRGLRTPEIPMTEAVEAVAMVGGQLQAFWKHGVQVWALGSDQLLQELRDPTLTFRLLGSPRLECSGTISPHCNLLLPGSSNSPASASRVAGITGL
ASSAY TEXT: HPK1 Cellular HiBiT Degradation Assay
Type: cell-based
SETTINGS: HiBiT-tagged HPK1 Jurkat cells, 24 hours, 10 uM to 0.1 nM; Dmax = 100 minus lowest % HPK1 remaining vs DMSO vehicle
EXPERIMENTAL READOUT: Dmax

COMPOUND	Dmax
Cc1cc(F)c(Nc2nc(-c3ccc4c(c3)N([C@H]3C[C@@H](N5CCCCC5)C3)C(=O)C43CCN(C(=O)C[C@@H]4CCN(C(=O)[C@H]5CC[C@H](Nc6cccc7c6C(=O)N(C6CCC(=O)NC6=O)C7=O)CC5)C4)CC3)cc3ncn(C(C)C)c23)cc1C(=O)NC(C)C (some centres unmarked) [Example 56]	< 45%

Please turn your attention to the following entry.
What value of Dmax has been recorded for this entry: Cc1cc(F)c(Nc2nc(-c3ccc4c(c3)N([C@H]3C[C@@H](N5CCCCC5)C3)C(=O)C43CCN(C(=O)CN4CCC5(CC4)CN(c4ccc6c(c4)C(=O)N(C4CCC(=O)NC4=O)C6=O)C5)CC3)cc3ncn(C(C)C)c23)cc1C(=O)NC(C)C (some centres unmarked) [Example 22]
< 45%

====

SYSTEM UNDER TEST: HPK1 (Homo sapiens)
Construct: A HiBiT tag was introduced by CRISPR on the N terminus of HPK1 in Jurkat cells; host or cells: Jurkat (ATCC TIB-152), monoclonal CRISPR HiBiT knock-in line
ASSAY TEXT: HPK1 Cellular HiBiT Degradation Assay
Format: cell-based
SETTINGS: HiBiT-tagged HPK1 Jurkat cells, 24 hours, 10 uM to 0.1 nM; Dmax = 100 minus lowest % HPK1 remaining vs DMSO vehicle
// reported Dmax for each item listed

Observe how each entry below is paired with its result.
COMPOUND	Dmax
Cc1cc(F)c(Nc2nc(-c3ccc4c(c3)N([C@H]3C[C@@H](N5CCCCC5)C3)C(=O)C43CCN(C(=O)C4CN(C5CCN(c6ccc7c(c6)C(=O)N(C6CCC(=O)NC6=O)C7=O)CC5)C4)CC3)cc3ncn(C(C)C)c23)cc1C(=O)NC(C)C (stereo partly drawn)	< 45%
Cc1cc(F)c(Nc2nc(-c3ccc4c(c3)N([C@H]3C[C@@H](N5CCCCC5)C3)C(=O)C43CCN(C(=O)CCOCCOCCOCCOCCNc4cccc5c4C(=O)N(C4CCC(=O)NC4=O)C5=O)CC3)cc3ncn(C(C)C)c23)cc1C(=O)NC(C)C (stereo partly drawn)	45 to 65%
Cc1cc(F)c(Nc2nc(-c3ccc4c(c3)N([C@H]3C[C@@H](N5CCCCC5)C3)C(=O)C43CCN(C(=O)C4CCN(CC5CCN(c6ccc7c(c6)C(=O)N(C6CCC(=O)NC6=O)C7=O)CC5)CC4)CC3)cc3ncn(C(C)C)c23)cc1C(=O)NC(C)C (stereo partly drawn)	> 65%
Cc1cc(F)c(Nc2nc(-c3ccc4c(c3)N([C@H]3C[C@@H](N5CCCCC5)C3)C(=O)C43CCN(C(=O)c4ccc(C(=O)N5CCN(c6cccc7c6C(=O)N(C6CCC(=O)NC6=O)C7=O)CC5)cc4)CC3)cc3ncn(C(C)C)c23)cc1C(=O)NC(C)C (stereo partly drawn)	45 to 65%
Cc1cc(F)c(Nc2nc(-c3ccc4c(c3)N([C@H]3C[C@@H](N5CCCCC5)C3)C(=O)C43CCN(C(=O)c4ccc(S(=O)(=O)N5CCN(c6ccc7c(c6)C(=O)N(C6CCC(=O)NC6=O)C7=O)CC5)cc4)CC3)cc3ncn(C(C)C)c23)cc1C(=O)NC(C)C (stereo partly drawn)	< 45%
Cc1cc(F)c(Nc2nc(-c3ccc4c(c3)N([C@H]3C[C@@H](N5CCCCC5)C3)C(=O)C43CCN(C(=O)C4CCN(CC5CCN(c6cccc7c6C(=O)N(C6CCC(=O)NC6=O)C7=O)CC5)CC4)CC3)cc3ncn(C(C)C)c23)cc1C(=O)NC(C)C (stereo partly drawn)	> 65%

What value of Dmax has been recorded for this entry: Cc1cc(F)c(Nc2nc(-c3ccc4c(c3)N([C@H]3C[C@@H](N5CCCCC5)C3)C(=O)C43CCN(C(=O)Cc4ccc(N5CCN(CC(=O)N[C@H](C(=O)N6C[C@H](O)C[C@H]6C(=O)N[C@@H](C)c6ccc(-c7scnc7C)cc6)C(C)(C)C)CC5)cc4)CC3)cc3ncn(C(C)C)c23)cc1C(=O)NC(C)C
> 65%

What value of Dmax has been recorded for this entry: Cc1cc(F)c(Nc2nc(-c3ccc4c(c3)N([C@H]3C[C@@H](N5CCCCC5)C3)C(=O)C43CCN(C(=O)CCOCCNc4cccc5c4C(=O)N(C4CCC(=O)NC4=O)C5=O)CC3)cc3ncn(C(C)C)c23)cc1C(=O)NC(C)C (stereo partly drawn)
< 45%

What value of Dmax has been recorded for this entry: Cc1cc(F)c(Nc2nc(-c3ccc4c(c3)N([C@H]3C[C@@H](N5CCCCC5)C3)C(=O)C43CCN(C(=O)C4CCN(C(=O)[C@H]5CC[C@H](N(C)c6cccc7c6C(=O)N(C6CCC(=O)NC6=O)C7=O)CC5)CC4)CC3)cc3ncn(C(C)C)c23)cc1C(=O)NC(C)C (stereo partly drawn)
> 65%

What value of Dmax has been recorded for this entry: Cc1cc(F)c(Nc2nc(-c3ccc4c(c3)N([C@H]3C[C@@H](N5CCCCC5)C3)C(=O)C43CCN(C(=O)[C@H]4CCN(C(=O)[C@H]5CC[C@H](Nc6cccc7c6C(=O)N(C6CCC(=O)NC6=O)C7=O)CC5)C4)CC3)cc3ncn(C(C)C)c23)cc1C(=O)NC(C)C (stereo partly drawn)
< 45%

What value of Dmax has been recorded for this entry: Cc1cc(F)c(Nc2nc(-c3ccc4c(c3)N([C@H]3C[C@@H](N5CCCCC5)C3)C(=O)C43CCN(C(=O)c4ccc(OC5CCN(c6cccc7c6C(=O)N(C6CCC(=O)NC6=O)C7=O)CC5)cc4)CC3)cc3ncn(C(C)C)c23)cc1C(=O)NC(C)C (stereo partly drawn)
> 65%

What value of Dmax has been recorded for this entry: Cc1cc(F)c(Nc2nc(-c3ccc4c(c3)N([C@H]3C[C@@H](N5CCCCC5)C3)C(=O)C43CCN(C(=O)C4CCN(C(=O)C5CCN(c6cccc7c6C(=O)N(C6CCC(=O)NC6=O)C7=O)CC5)C4)CC3)cc3ncn(C(C)C)c23)cc1C(=O)NC(C)C (mixture of isomers)
45 to 65%

What value of Dmax has been recorded for this entry: Cc1cc(F)c(Nc2nc(-c3ccc4c(c3)N([C@H]3C[C@@H](N5CCCCC5)C3)C(=O)C43CCN(C(=O)CN4CCN(CC(=O)N[C@H](C(=O)N5C[C@H](O)C[C@H]5C(=O)N[C@@H](C)c5ccc(-c6scnc6C)cc5)C(C)(C)C)CC4)CC3)cc3ncn(C(C)C)c23)cc1C(=O)NC(C)C
45 to 65%

What value of Dmax has been recorded for this entry: Cc1cc(F)c(Nc2nc(-c3ccc4c(c3)N([C@H]3C[C@@H](N5CCCCC5)C3)C(=O)C43CCN(C(=O)[C@@H]4CCN(C(=O)[C@H]5CC[C@H](Nc6ccc7c(c6)C(=O)N(C6CCC(=O)NC6=O)C7=O)CC5)C4)CC3)cc3ncn(C(C)C)c23)cc1C(=O)NC(C)C (stereo partly drawn)
45 to 65%

What value of Dmax has been recorded for this entry: Cc1cc(F)c(Nc2nc(-c3ccc4c(c3)N([C@H]3C[C@@H](N5CCCCC5)C3)C(=O)C43CCN(C(=O)c4ccc(C(=O)N5CCC(c6cccc7c6C(=O)N([C@H]6CCC(=O)NC6=O)C7=O)CC5)cc4)CC3)cc3ncn(C(C)C)c23)cc1C(=O)NC(C)C
< 45%

====

// reported Dmax for each item listed
SYSTEM UNDER TEST: HPK1 (Homo sapiens)
Construct: A HiBiT tag was introduced by CRISPR on the N terminus of HPK1 in Jurkat cells; host or cells: Jurkat (ATCC TIB-152), monoclonal CRISPR HiBiT knock-in line
ASSAY TEXT: HPK1 Cellular HiBiT Degradation Assay
Format: cell-based
SETTINGS: HiBiT-tagged HPK1 Jurkat cells, 24 hours, 10 uM to 0.1 nM; Dmax = 100 minus lowest % HPK1 remaining vs DMSO vehicle

Observe how each entry below is paired with its result.
MOLECULE	Dmax
Cc1cc(F)c(Nc2nc(-c3ccc4c(c3)N([C@H]3C[C@@H](N5CCCCC5)C3)C(=O)C43CCN(C(=O)[C@H]4CC[C@@H](C(=O)N5CCC(N(C)c6cccc7c6C(=O)N(C6CCC(=O)NC6=O)C7=O)CC5)CC4)CC3)cc3ncn(C(C)C)c23)cc1C(=O)NC(C)C (stereo partly shown) [Example 62]	45 to 65%
Cc1cc(F)c(Nc2nc(-c3ccc4c(c3)N(C3CC(N5CCCCC5)C3)C(=O)C43CCN(C(=O)CN4CC5(CCN(c6ccc7c(c6)C(=O)N(C6CCC(=O)NC6=O)C7=O)CC5)C4)CC3)cc3ncn(C(C)C)c23)cc1C(=O)NC(C)C (stereo not shown) [Example 28]	< 45%
CC(=O)N1CCC2(CC1)C(=O)N([C@H]1C[C@@H](N3CCC[C@@H](C(=O)NCCCCCCCCCOc4cc(-c5scnc5C)ccc4CNC(=O)[C@@H]4C[C@@H](O)CN4C(=O)[C@@H](NC(=O)C4(F)CC4)C(C)(C)C)C3)C1)c1cc(-c3cc4ncn(C(C)C)c4c(Nc4cc(C(=O)NC(C)C)c(C)cc4F)n3)ccc12 [Example 17]	< 45%

What value of Dmax has been recorded for this entry: CC(=O)N1CCC2(CC1)C(=O)N([C@H]1C[C@@H](N3CCC[C@@H](C(=O)NCCCCCCCOc4cc(-c5scnc5C)ccc4CNC(=O)[C@@H]4C[C@@H](O)CN4C(=O)[C@@H](NC(=O)C4(F)CC4)C(C)(C)C)C3)C1)c1cc(-c3cc4ncn(C(C)C)c4c(Nc4cc(C(=O)NC(C)C)c(C)cc4F)n3)ccc12 [Example 16]
< 45%
